# tgt: JNK1 (Homo sapiens)
# testProtocol: DELFIA kinase assay, JNK1
# Format: biochemical
# runParameters: DELFIA, biotinylated GST-ATF2 substrate, 10 minute pre-incubation, final ATP 7 uM
pIC50: −log10 of the molar value.
List of pIC50 values.

Nc1nc2ccc(CNC(=O)c3cccc(C(=O)O)n3)cc2s1 ... < 6.00
N#Cc1ccccc1N1CCC(NC(=O)c2cccc(C(=O)NCc3ccc4nc(N)sc4c3)n2)CC1 ... 7.01 to 8.40

// fetch JNK1 (Homo sapiens) pIC50 for Nc1nc2ccc(CNC(=O)c3cccc(C(=O)N4CCC(c5cccc(O)c5)C(O)C4)n3)cc2s1 (stereo not shown) < 6.00

Item: CC(C)(C)c1cnn(-c2cccc(C(=O)NCc3ccc(S(C)(=O)=O)cc3)n2)c1 6.02 to 6.99

###

# tgt: UniProt P45983
# testProtocol: DELFIA kinase assay, JNK1
# Assay type: biochemical
# runParameters: DELFIA, biotinylated GST-ATF2 substrate, 10 minute pre-incubation, final ATP 7 uM
pIC50: −log10 of the molar value.
recordedMetric: pIC50

Can you look up the measured pIC50 of COc1cccc(-c2cccc(C(=O)NCc3ccc(S(C)(=O)=O)cc3)n2)c1F for me? 6.02 to 6.99

Item: CC(C)NC(=O)c1cccc(C(=O)NCc2cnn(-c3ccccn3)c2)n1 6.02 to 6.99

Item: CS(=O)(=O)c1ccc(CNC(=O)c2cccc(-c3ccc4c(c3)OCO4)n2)cc1 6.02 to 6.99

Item: CS(=O)(=O)c1ccc(CNC(=O)c2cccc(-n3cccn3)n2)cc1 < 6.00

Item: COC(=O)c1ccc(C2CCN(C(=O)c3cccc(C(=O)NCc4ccc5nc(N)sc5c4)n3)CC2O)cc1 (centres unmarked) < 6.00

Item: CCOC(=O)N1CCC(NC(=O)c2cccc(C(=O)NCc3ccc4c(c3)OCO4)n2)CC1 6.02 to 6.99

Item: Nc1nc2ccc(CNC(=O)c3cccc(C(=O)NCCN4CCOCC4)n3)cc2s1 < 6.00

Item: COc1ccc(-c2cc(CNC(=O)c3cccc(C(=O)NC(C)C)n3)no2)cc1 7.01 to 8.40

###

# tgt: JNK1 (Homo sapiens, UniProt P45983)
# Sequence (P45983 whole entry, species assumed): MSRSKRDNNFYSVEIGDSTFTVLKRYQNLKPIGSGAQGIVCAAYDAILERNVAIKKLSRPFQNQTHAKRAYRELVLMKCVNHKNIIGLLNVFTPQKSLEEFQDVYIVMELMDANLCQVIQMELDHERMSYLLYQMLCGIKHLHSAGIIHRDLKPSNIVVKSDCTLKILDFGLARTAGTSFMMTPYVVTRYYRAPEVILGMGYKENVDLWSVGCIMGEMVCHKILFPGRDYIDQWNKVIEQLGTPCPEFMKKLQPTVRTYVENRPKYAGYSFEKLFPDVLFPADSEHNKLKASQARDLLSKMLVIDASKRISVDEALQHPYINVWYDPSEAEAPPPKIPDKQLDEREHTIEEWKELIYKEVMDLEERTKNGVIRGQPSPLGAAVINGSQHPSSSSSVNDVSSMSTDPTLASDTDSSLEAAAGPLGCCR
# testProtocol: DELFIA kinase assay, JNK1
# Type: biochemical
# runParameters: DELFIA assay, 2 nM JNK1, 7 uM ATP, 10 min pre-incubation; second table; read-out: JNK 1 IC50
recordedMetric: pIC50
Value format note: pIC50 is -log10 of concentration (mol/L); just state the number.

CC(C)NC(=O)c1cccc(C(=O)NCc2cnn(-c3cnc4cccnc4c3)c2)n1 ... 7.74

Can you look up the measured pIC50 of CC(C)NC(=O)c1cccc(C(=O)NCc2cnn(-c3ccc4nccnc4c3)c2)n1 for me? 7.89

Item: CS(=O)(=O)c1ccc(-n2cc(CNC(=O)c3cccc(C(=O)NC4CCC4)n3)cn2)cc1 8.00

###

# tgt: UniProtKB P45983
# testProtocol: DELFIA kinase assay, JNK1
# Type: biochemical
# runParameters: DELFIA, biotinylated GST-ATF2 substrate, 10 minute pre-incubation, final ATP 7 uM
List of IC50 values.

// fetch UniProtKB P45983 IC50 for COc1ccc(F)cc1-c1cccc(C(=O)NCc2ccc(S(C)(=O)=O)cc2)n1 102 to 959 nM

Item: C[C@H](CO)NC(=O)c1cccc(C(=O)NCc2ccc3nc(N)sc3c2)n1 102 to 959 nM

Item: Nc1nc2ccc(CNC(=O)c3cccc(C(=O)N4CCC(O)CC4)n3)cc2s1 > 1000 nM

Item: Cc1nc2cc(-n3cc(CNC(=O)c4cccc(C(=O)NC(C)C)n4)cn3)ccc2[nH]1 4 to 97 nM
